test: reduction of polyQ htt aggregates in cells – imaging, exon1htt(103Q)mCFP cells, high-content imaging, primary screen (AID 483); details: exon1htt(103Q)mCFP cell line, aggregate imaging, at 2 µM; measured here: cell count, toxicity;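 also: compound exposure lasted 3 days before fixation; percent of the per-plate median nuclei count of sample wells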
Documented nuclei count across a set of compounds
Numeric answer only, unit % assumed.

Previously resolved entries follow.
>  <compound>
Cc1ccccc1NS(=O)(=O)c1cc(C(=O)N2CCCC2)ccc1C

>  <nuclei count, %>
86.1

$$$$
>  <compound>
CCN(CC)C(=O)CSc1nc2ccccc2c(=O)n1CCC(=O)NCc1ccc(F)cc1

>  <nuclei count, %>
108

$$$$
>  <compound>
CCC1(CC)NC(=O)NC1=O

>  <nuclei count, %>
89.9

$$$$
>  <compound>
CC1CCCCN1CCNC(=O)c1ccc2c(=O)n(CCc3ccccc3)c(=O)[nH]c2c1 (stereo not given)

>  <nuclei count, %>
91.2

$$$$
>  <compound>
CCCCOCCCNC(=O)COc1ccccc1

>  <nuclei count, %>
113

$$$$
>  <compound>
O=C(OCC#CCSc1nc2ccccc2o1)c1ccco1

>  <nuclei count, %>
111

$$$$

Task: Recorded nuclei count for COc1cccc(OC)c1C(=O)Nc1ccc(CN2CCCCC2)cc1 , please?
Output: 71.4

Just for reference, PubChem BioAssay is where these values come from.
